Origin of the recorded values: patent US6358885B1

In this section we review reported Wheat (Winter) plant response rating values for a set of molecules.
Test system: winter wheat
protocol_text: Test F preemergence/postemergence greenhouse plant response rating 0 to 100
Type: in vivo, Triticum aestivum cv. ‘Talent’
conditions: POSTEMERGENCE, Rate 16 g/ha, 0 to 100 scale
Just the number, please, no unit after it.

Some molecules with recorded Wheat (Winter) plant response rating:
                                   molecule  assay_value
0    Fc1cc(Cl)c(OCCCl)cc1-c1nn2c(c1Cl)CCCC2           10
1  C#CC(C)N1C(=O)COc2cc(F)c(-c3nn4c(c3Cl)CCCC4)cc21 (stereo not shown)            0
2  CCOC(=O)COc1cc(-c2nn3c(c2Cl)CCCC3)c(F)cc1Cl           10

As a next step, examine the molecule that follows.
Input line: Look up Wheat (Winter) plant response rating for this molecule: C#CC(C)Oc1cc(-c2nn3c(c2Cl)CCCC3)c(F)cc1Cl (stereo not shown)
Output line: 20
